Target: T1, human TL1A extracellular domain with N-terminal HIS and FLAG tag (human, UniProt O95150 72-251)
T1 construct: the whole entry is named
T1 sequence: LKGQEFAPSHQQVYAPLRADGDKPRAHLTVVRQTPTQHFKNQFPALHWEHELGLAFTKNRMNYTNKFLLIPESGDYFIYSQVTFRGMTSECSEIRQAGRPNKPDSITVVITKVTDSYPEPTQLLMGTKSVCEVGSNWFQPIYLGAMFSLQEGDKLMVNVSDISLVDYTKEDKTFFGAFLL
Test: SPR Run 4, purified Ab captured on Protein A, TL1A 5 ug/mL, timepoint 220
quantity.measured: TL1A Binding Level (Late) (RU)
API: value field is a number in RU; no unit string.

What the record says about 320-353 (antibody, human IgG1, name in Kabat numbering, V domains shown, human IgG1, lambda) VH: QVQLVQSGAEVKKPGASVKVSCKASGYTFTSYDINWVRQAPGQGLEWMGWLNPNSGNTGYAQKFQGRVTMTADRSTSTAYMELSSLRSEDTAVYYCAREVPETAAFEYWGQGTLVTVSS VL: QSVLTQPPSVSGAPGQRVTISCTSSSSDIGAGLGVHWYQQLPGTAPKLLIEGYYNRPSGVPDRFSGSKSGTSASLTITGLLPEDEGDYYCQSYDGHLSALFGGGTKLTVLG : TL1A Binding Level (Late) is 73

Query binder follows.
What the record says about 320-325 (antibody, human IgG1, name in Kabat numbering, V domains shown, human IgG1, lambda) VH: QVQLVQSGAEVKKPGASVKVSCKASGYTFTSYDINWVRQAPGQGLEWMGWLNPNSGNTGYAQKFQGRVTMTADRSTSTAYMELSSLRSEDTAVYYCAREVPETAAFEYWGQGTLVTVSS VL: QSVLTQPPSVSGAPGQRVTISCTSSSSDIGAGLGVHWYQQLPGTAPKLLIEGYYNRPSGVPDRFSGSKSGTSASLTITGLLPEDEGDYYCQSADGTLSALFGGGTKLTVLG : TL1A Binding Level (Late) is 83
